Values from ChEMBL document CHEMBL3632584

- system: Kappa-type opioid receptor (Homo sapiens)
- assay_remarks: Agonist activity at human kappa-opioid receptor expressed in CHO cell membrane assessed as [35S]GTPgammaS binding for 1 hr by liquid scintillation counting analysis
- Type: functional, cell membranes
- conditions_used: read-out: EC50
Kindly state pEC50 for each of the entries shown.
Numbers only, as −log10 of the molar value.

CC(=O)N1CC[C@@H](NC(=O)[C@@H](N)Cc2c(C)cc(O)cc2C)c2cc(CC3Cc4ccccc4C3)ccc21 = 6.21

Provide each entry's pEC50 from the list below.
1. Cc1cc(O)cc(C)c1C[C@H](N)C(=O)N[C@@H]1CCNc2ccc(CC3CCc4ccccc43)cc21 (mixture of isomers)
2. CC(=O)N1CC[C@@H](NC(=O)[C@@H](N)Cc2c(C)cc(O)cc2C)c2cc(CC3CCCCC3)ccc21
3. Cc1cc(O)cc(C)c1C[C@H](N)C(=O)N[C@@H]1CCNc2ccc(CC3CCCCC3)cc21
4. Cc1cc(O)cc(C)c1C[C@H](N)C(=O)N[C@@H]1CCCc2ccc(CC3CCCCC3)cc21

1: 6.74; 2: 6.62; 3: 7.01; 4: 6.46

###

This section lists pKi readings for Kappa-type opioid receptor (Homo sapiens, UniProt P41145).
Give bare numbers, as −log10 of the molar value.

Solved entries:
CC(=O)N1CC[C@@H](NC(=O)[C@@H](N)Cc2c(C)cc(O)cc2C)c2cc(Cc3ccccc3)ccc21 = 7.06
CC(=O)N1CC[C@@H](NC(=O)[C@@H](N)Cc2c(C)cc(O)cc2C)c2cc(Cc3ccc4ccccc4c3)ccc21 = 7.32
Cc1cc(O)cc(C)c1C[C@H](N)C(=O)N[C@@H]1CCNc2ccc(CC3CCCCC3)cc21 = 8.21
Cc1cc(O)cc(C)c1C[C@H](N)C(=O)N[C@@H]1CCCc2ccc(Cc3cccc4ccccc34)cc21 = 7.20

Provide each entry's pKi from the list below.
1. CC(=O)N1CC[C@@H](NC(=O)[C@@H](N)Cc2c(C)cc(O)cc2C)c2cc(CC3CCCCC3)ccc21
2. Cc1cc(O)cc(C)c1C[C@H](N)C(=O)N[C@@H]1CCCc2ccc(Cc3ccc4ccccc4c3)cc21
3. CC(=O)N1CC[C@@H](NC(=O)[C@@H](N)Cc2c(C)cc(O)cc2C)c2cc(CC3Cc4ccccc4C3)ccc21
4. Cc1cc(O)cc(C)c1C[C@H](N)C(=O)N[C@@H]1CCNc2ccc(CC3CCc4ccccc43)cc21 (mixture of isomers)
5. Cc1cc(O)cc(C)c1C[C@H](N)C(=O)N[C@@H]1CCCc2ccc(CC3CCCCC3)cc21

1. 8.08
2. 7.04
3. 7.92
4. 7.72
5. 7.70

###

- system: UniProt P33535
- assay_remarks: Agonist activity at rat mu-opioid receptor expressed in C6 cell membrane assessed as [35S]GTPgammaS binding for 1 hr by liquid scintillation counting analysis relative to 10 uM DAMGO
- Type: functional, cell membranes
Label rule met when Activity is strictly below 70%; otherwise label rule not met.

Activity strictly < 70% for this compound? Cc1cc(O)cc(C)c1C[C@H](N)C(=O)N[C@@H]1CCNc2ccc(CC3CCc4ccccc43)cc21 (mixture of isomers) rule met

Activity strictly < 70% for this compound? Cc1cc(O)cc(C)c1C[C@H](N)C(=O)N[C@@H]1CCNc2ccc(CC3CCCCC3)cc21 rule met

Activity strictly < 70% for this compound? CC(=O)N1CC[C@@H](NC(=O)[C@@H](N)Cc2c(C)cc(O)cc2C)c2cc(CC3Cc4ccccc4C3)ccc21 rule not met

###

- Species on record: Rattus norvegicus
- assay_remarks: Selectivity ratio, ratio of Ki for rat delta-opioid receptor to Ki for rat mu-opioid receptor
Kindly state Ratio Ki for each of the entries shown.
Numbers only.

Solved entries:
CC(=O)N1CC[C@@H](NC(=O)[C@@H](N)Cc2c(C)cc(O)cc2C)c2cc(Cc3ccc4ccccc4c3)ccc21 = 6
Cc1cc(O)cc(C)c1C[C@H](N)C(=O)N[C@@H]1CCNc2ccc(CC3Cc4ccccc4C3)cc21 = 26
CC(=O)N1CC[C@@H](NC(=O)[C@@H](N)Cc2c(C)cc(O)cc2C)c2cc(CC3Cc4ccccc4C3)ccc21 = 9

Let us examine a further case.
Consider the molecule shown here: Cc1cc(O)cc(C)c1C[C@H](N)C(=O)N[C@@H]1CCCc2ccc(Cc3cccc4ccccc34)cc21 What is its recorded Ratio Ki? 13

###

- system: Kappa-type opioid receptor (Homo sapiens, UniProt P41145)
- Sequence (P41145 whole entry): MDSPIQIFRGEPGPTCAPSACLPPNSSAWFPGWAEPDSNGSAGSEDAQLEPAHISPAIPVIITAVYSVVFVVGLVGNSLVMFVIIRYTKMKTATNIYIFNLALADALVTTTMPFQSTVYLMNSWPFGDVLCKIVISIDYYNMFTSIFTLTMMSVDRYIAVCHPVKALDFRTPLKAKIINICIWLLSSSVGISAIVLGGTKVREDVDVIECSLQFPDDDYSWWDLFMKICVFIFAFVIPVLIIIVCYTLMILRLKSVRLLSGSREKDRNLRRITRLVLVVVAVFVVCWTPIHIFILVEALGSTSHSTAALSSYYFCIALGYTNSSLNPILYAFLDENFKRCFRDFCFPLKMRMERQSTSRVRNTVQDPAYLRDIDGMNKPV
- assay_remarks: Agonist activity at human kappa-opioid receptor expressed in CHO cell membrane assessed as [35S]GTPgammaS binding for 1 hr by liquid scintillation counting analysis relative to 10 uM U69593
- Assay type: functional, cell membranes
Calls of active or inactive are those of the source. The calls are words filed in the database; no cut-off is given here.
measured_quantity: Activity

CC(=O)N1CC[C@@H](NC(=O)[C@@H](N)Cc2c(C)cc(O)cc2C)c2cc(Cc3ccc4ccccc4c3)ccc21 = inactive
Cc1cc(O)cc(C)c1C[C@H](N)C(=O)N[C@@H]1CCNc2ccc(Cc3ccc4ccccc4c3)cc21 = inactive
CC(=O)N1CC[C@@H](NC(=O)[C@@H](N)Cc2c(C)cc(O)cc2C)c2cc(CC3CCc4ccccc43)ccc21 (mixture of isomers) = 26%
CC(=O)N1CC[C@@H](NC(=O)[C@@H](N)Cc2c(C)cc(O)cc2C)c2cc(CC3CCCCC3)ccc21 = 33%

###

This section lists log10(Ki) readings for Mu-type opioid receptor (Rattus norvegicus).
// stored as log10 of Ki expressed in nM

Solved entries:
CC(=O)N1CC[C@@H](NC(=O)[C@@H](N)Cc2c(C)cc(O)cc2C)c2cc(Cc3cccc4ccccc34)ccc21 = -1.22
Cc1cc(O)cc(C)c1C[C@H](N)C(=O)N[C@@H]1CCNc2ccc(CC3CCc4ccccc43)cc21 (mixture of isomers) = -1.30
CC(=O)N1CC[C@@H](NC(=O)[C@@H](N)Cc2c(C)cc(O)cc2C)c2cc(CC3Cc4ccccc4C3)ccc21 = -1.30

Provide each entry's log10(Ki) from the list below.
1. CC(=O)N1CC[C@@H](NC(=O)[C@@H](N)Cc2c(C)cc(O)cc2C)c2cc(Cc3ccccc3)ccc21
2. CC(=O)N1CC[C@@H](NC(=O)[C@@H](N)Cc2c(C)cc(O)cc2C)c2cc(CC3CCc4ccccc43)ccc21 (mixture of isomers)
3. Cc1cc(O)cc(C)c1C[C@H](N)C(=O)N[C@@H]1CCNc2ccc(CC3CCCCC3)cc21
4. CC(=O)N1CC[C@@H](NC(=O)[C@@H](N)Cc2c(C)cc(O)cc2C)c2cc(CC3CCCCC3)ccc21
5. Cc1cc(O)cc(C)c1C[C@H](N)C(=O)N[C@@H]1CCCc2ccc(Cc3cccc4ccccc34)cc21
6. CC(=O)N1CC[C@@H](NC(=O)[C@@H](N)Cc2c(C)cc(O)cc2C)c2cc(Cc3ccc4ccccc4c3)ccc21

1: -0.89; 2: -1.52; 3: -1.37; 4: -1.52; 5: -0.41; 6: -1.40

Provide each entry's log10(Ki) from the list below.
1. Cc1cc(O)cc(C)c1C[C@H](N)C(=O)N[C@@H]1CCCc2ccc(Cc3ccccc3)cc21
2. Cc1cc(O)cc(C)c1C[C@H](N)C(=O)N[C@@H]1CCCc2ccc(Cc3ccc4ccccc4c3)cc21

1: -1.35; 2: -1.22

###

This section lists Ki readings for Kappa-type opioid receptor (Homo sapiens, UniProt P41145).
Give bare numbers, in nM.

Solved entries:
CC(=O)N1CC[C@@H](NC(=O)[C@@H](N)Cc2c(C)cc(O)cc2C)c2cc(Cc3cccc4ccccc34)ccc21 = 4.3
Cc1cc(O)cc(C)c1C[C@H](N)C(=O)N[C@@H]1CCCc2ccc(Cc3ccccc3)cc21 = 19

Consider the compound shown here: CC(=O)N1CC[C@@H](NC(=O)[C@@H](N)Cc2c(C)cc(O)cc2C)c2cc(CC3CCc4ccccc43)ccc21 (mixture of isomers) What is its recorded Ki? 15

###

- system: Mu-type opioid receptor (Rattus norvegicus) (UniProt P33535)
- Sequence (P33535 whole entry): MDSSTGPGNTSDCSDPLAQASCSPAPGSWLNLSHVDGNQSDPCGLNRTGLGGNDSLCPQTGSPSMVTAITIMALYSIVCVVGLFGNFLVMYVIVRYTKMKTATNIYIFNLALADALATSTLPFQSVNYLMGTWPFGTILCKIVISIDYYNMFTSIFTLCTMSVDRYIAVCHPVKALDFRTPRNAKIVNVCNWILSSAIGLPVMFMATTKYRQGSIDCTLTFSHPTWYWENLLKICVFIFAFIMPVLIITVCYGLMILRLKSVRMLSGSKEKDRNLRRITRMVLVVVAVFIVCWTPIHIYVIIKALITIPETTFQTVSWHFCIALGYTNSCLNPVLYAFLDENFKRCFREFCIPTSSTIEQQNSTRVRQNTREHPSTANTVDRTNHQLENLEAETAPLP
- assay_remarks: Agonist activity at rat mu-opioid receptor expressed in C6 cell membrane assessed as [35S]GTPgammaS binding for 1 hr by liquid scintillation counting analysis relative to 10 uM DAMGO
- Format: functional, cell membranes
Kindly state Activity for each of the entries shown.
Answers are plain numbers, in %.

Solved entries:
CC(=O)N1CC[C@@H](NC(=O)[C@@H](N)Cc2c(C)cc(O)cc2C)c2cc(Cc3cccc4ccccc34)ccc21 = 70
CC(=O)N1CC[C@@H](NC(=O)[C@@H](N)Cc2c(C)cc(O)cc2C)c2cc(CC3CCCCC3)ccc21 = 70
CC(=O)N1CC[C@@H](NC(=O)[C@@H](N)Cc2c(C)cc(O)cc2C)c2cc(Cc3ccccc3)ccc21 = 76

Provide each entry's Activity from the list below.
1. Cc1cc(O)cc(C)c1C[C@H](N)C(=O)N[C@@H]1CCCc2ccc(Cc3ccccc3)cc21
2. Cc1cc(O)cc(C)c1C[C@H](N)C(=O)N[C@@H]1CCCc2ccc(Cc3cccc4ccccc34)cc21

64
58
